- Tested on: HOP-62 NSCLC
- ASSAY_NOTES: NCI-60 one-dose screen, 48 h (100 = growth as untreated, 0 = no growth, -100 = all killed)
- ASSAY_CONTEXT: 10 µM unless noted
This is part of a sample that, as a whole, favours compounds with a hit. Of some 83,000 tested, about 20% had one in any assay.
Would you mind telling me the reported growth of each entry?
Answers are plain numbers, in %.

Some molecules with recorded growth:
INSERT INTO results (molecule, reported_value) VALUES
  ('Nc1ncc(-c2ccc3ncnc(N4CCc5cc(F)c(Cl)cc54)c3c2)cc1CO', 9.91),
  ('C#Cc1nc(C2=C(C)C(OC(C)=O)/C(=N/OC(C)=O)C2)cs1 (stereo not drawn)', -46.9),
  ('O=C1Nc2cc(Cl)ccc2/C1=C\c1ccc(OCc2ccc(Br)cc2F)cc1', -21.1),
  ('NS(=O)(=O)c1ccc(Nc2nc(Nc3ccccc3)nc(-n3nc(-c4ccccc4)cc3-c3ccccc3)n2)cc1', 63.7),
  ('CCCC(=O)NC(c1ccc2c(c1)OC(F)(F)O2)c1cc(C)c2cccnc2c1O (stereo not drawn)', 15.9),
  ('NS(=O)(=O)c1cccc(Nc2nc(SCC(=O)c3ccc(Cl)cc3)nc3ccccc23)c1', 36.2),
  ('C=CCn1c(SCC(=O)c2ccc(Br)cc2)nnc1-c1c[nH]c2ccccc12', 103);

Pending molecule:
Incoming: # get_value(readout='growth', item= Clc1ccc2oc3c(NCCCN4CCOCC4)c4ccccc4nc3c2c1 )
Outgoing: 43.5
